Origin of measurements: patent US9815831B2

Tested on: MKN-45
Experiment: Inhibition of MKN-45 proliferation (MTT)
Type: cell-based, human
Conditions: Homo sapiens, MKN-45, Table 4C; 100 nM; MKN-45 proliferation; read-out: MKN45 % inhibition @ 100 nM
Procedure: 3. Inhibition of MKN-45 Proliferation: Cell proliferation assays were carried out using the high Met expressing human gastric adenocarcinoma cell line, MKN-45, according to the following schedule: • Day 1: Cells were plated in 96-well plates in complete growth medium. • Day 2: Compounds at desired concentrations were added. • Day 5: Cell viability was determined using the 3-[4,5-dimethylthiazol-2-yl]-2,5-diphenyltetrazolium bromide (MTT) dye reduction test. […]
# inhibition at 0.1 µM values compiled below

Identify measured inhibition at 0.1 µM corresponding to Cc1cc(-c2ccc3ncn(Cc4c(F)cc5ncccc5c4F)c3n2)ccc1C(N)=O [Example 1027]
75 to 100%

Provide only the value of recorded inhibition at 0.1 µM for NC(=O)c1ccc(-c2ccc3ncn(Cc4c(F)cc5ncccc5c4F)c3n2)cc1Cl [Example 1023]
50 to 75%

Query inhibition at 0.1 µM for NC(=O)c1c(F)cc(-c2ccc3nnn(Cc4cc5cccnc5cc4F)c3n2)cc1F [Example 1007]
75 to 100%

Note inhibition at 0.1 µM for the compound shown: CCNC(=O)c1c(F)cc(-c2ccc3ncn(Cc4ccc5ncccc5c4)c3n2)cc1F [Example 1016]
< 25%
